Each record here notes measured pIC50.
- Test system: KYSE-450;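 note: cell growth inhibition measured by a viability assay in human KYSE-450 cells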
- Assay Method Text: cells
- Assay type: functional, cell-based
- Conditions Used: Homo sapiens
- Description: SANGER: Inhibition of human KYSE-450 cell growth in a cell viability assay.
pIC50: −log10 of the molar value.

[[record]]
compound = "C[C@]1(O)C[C@@H](c2nc(-c3ccc4ccc(-c5ccccc5)nc4c3)c3c(N)nccn32)C1"
observed = "< 5.59"

[[record]]
compound = "CCOc1nc(NC(=O)Cc2cc(OC)ccc2OC)cc(N)c1C#N"
observed = "< 5.00"


stdin: Quick one: pIC50 of CC(=O)O[C@@]12CO[C@@H]1C[C@H](O)[C@@]1(C)C(=O)[C@H](O)C3=C(C)[C@@H](OC(=O)[C@H](O)[C@@H](NC(=O)OC(C)(C)C)c4ccccc4)C[C@@](O)([C@@H](OC(=O)c4ccccc4)[C@H]21)C3(C)C ?
stdout: 8.84

stdin: Param item: Cn1cncc1[C@@](N)(c1ccc(Cl)cc1)c1ccc2c(c1)c(-c1cccc(Cl)c1)cc(=O)n2C
stdout: 6.14

stdin: Param item: CN(Cc1cnc2nc(N)nc(N)c2n1)c1ccc(C(=O)N[C@@H](CCC(=O)O)C(=O)O)cc1 [METHOTREXATE]
stdout: < 6.70

stdin: Param item: CC(=O)O[C@@H]1[C@@H](OC(C)=O)[C@@H](O)[C@H](Oc2c(-c3ccc(O)cc3)oc3cc(O)cc(O)c3c2=O)O[C@H]1C
stdout: < 5.00
